Reference source for all entries: patent US11390631B1

Experiment: Cytotoxicity on parallel plate without virus, ATPlite readout
Assay type: cell-based
Conditions: human, Hep-2 cells (no virus), Hep-2 cells without virus, 5-day incubation
Procedure: Following extensive parameter testing, the final assay is run as follows: Hep-2 cells are seeded into the inner 60 wells of a 96-well plate at 8,000 cells per well in a volume of 50 μL using Growth Media (DMEM without phenol red, 1% L-Glut, 1% Penn/Strep, 1% nonessential amino acids, 10% heat-inactivated FBS). […] The MOI is calculated using the PFU/mL, or TCID50 if unavailable. […] Assay plates are read using the Envision luminometer. […]
Exercise: state measured CC50 at 5 days for each of the compounds provided.

What does the data say about its CC50 at 5 days? Entry: COc1ccc(-c2nnc(NC3N=C(c4ccccc4)c4ccccc4NC3=O)o2)nc1 (centres unmarked) [Example 51]
> 50 µM

What does the data say about its CC50 at 5 days? Entry: O=C1Nc2ccccc2C(c2ccccc2)=NC1Nc1cc(N2CCOCC2)ncn1 (centres unmarked) [Example 93]
10 to 50 µM

What does the data say about its CC50 at 5 days? Entry: O=C1Nc2ccccc2C(c2ccccc2)=NC1Nc1nc2ccc(F)cc2o1 (centres unmarked) [Example 103]
10 to 50 µM

What does the data say about its CC50 at 5 days? Entry: COc1ccnc(-c2nnc(NC3N=C(c4ccccc4)c4ccccc4NC3=O)o2)c1 (centres unmarked) [Example 57]
> 50 µM

What does the data say about its CC50 at 5 days? Entry: O=C1Nc2ccccc2C(c2ccccc2)=NC1Nc1nc2c(F)cccc2o1 (centres unmarked) [Example 105]
> 50 µM

* * *

Assay: Cytotoxicity on parallel plate without virus, ATPlite readout
Format: cell-based
Conditions: human, Hep-2 cells (no virus), Hep-2 cells without virus, 5-day incubation
reported-metric: CC50 at 5 days

What does the data say about its CC50 at 5 days? Entry: O=C1Nc2ccccc2C(c2ccccc2)=NC1Nc1nnc(-c2ccc(-n3cccn3)cc2)o1 (stereo not shown)
10 to 50 µM

What does the data say about its CC50 at 5 days? Entry: CN1CCC(c2nnc(NC3N=C(c4ccccc4)c4ccccc4NC3=O)o2)CC1 (stereo not shown)
> 50 µM

What does the data say about its CC50 at 5 days? Entry: O=C1Nc2ccccc2C(c2ccccc2)=NC1Nc1cc(-c2ccccc2)ncn1 (stereo not shown)
10 to 50 µM

What does the data say about its CC50 at 5 days? Entry: O=C1Nc2ccccc2C(c2ccccc2)=NC1Nc1nc(-c2ccccc2)cs1 (stereo not shown)
< 10 µM

* * *

Exercise: state measured pEC50 for each of the molecules provided.
System: RSV-B, genotype B, strain 9320
Test: RSV-B assay: A549 cells infected with RSV-B, qPCR or ATPlite readout
Format: cell-based, Human respiratory syncytial virus (HRSV)
Conditions: human respiratory syncytial virus, A549, read-out: Human RSV-B EC50
Source text: Hep-2 cells, (originally derived from tumors grown in irradiated-cortisonised weanling rats that had been injected with epidermoid carcinoma tissue from a person's larynx, but later found to be indistinguishable from HeLa cells by PCR DNA analysis), were used for the culturing of genotype B, strain 9320. […] Viral stock titers were quantified by tissue culture infectious dose 50% o (TCID50) using 8,000 cells per well and 5-fold viral dilutions across a 96-well plate, cultured for 4 days. […]
pEC50: −log10 of the molar value.

What does the data say about its pEC50? Entry: `CCc1nc(-c2nnc(N[C@H]3N=C(c4ccccc4)c4ccccc4NC3=O)o2)c(N2CCOCC2)s1`
> 6.40

What does the data say about its pEC50? Entry: `C[C@H]1CN(c2cc(C(F)(F)F)cnc2-c2nnc(N[C@H]3N=C(c4ccccc4)c4ccccc4NC3=O)o2)CCO1`
> 6.40

What does the data say about its pEC50? Entry: `N#Cc1cc(-c2nnc(N[C@H]3N=C(c4ccccc4)c4ccccc4NC3=O)o2)c(N2CCOCC2)nc1C1CC1`
6.10 to 6.40

What does the data say about its pEC50? Entry: C[C@H]1CN(c2ncccc2-c2nnc(NC3N=C(c4ccccc4)c4ccccc4NC3=O)o2)CCO1 (some centres unmarked)
6.10 to 6.40

What does the data say about its pEC50? Entry: `Cn1c(N2CCOCC2)c(-c2nnc(N[C@H]3N=C(c4ccccc4)c4ccccc4NC3=O)o2)ccc1=O`
> 6.40

What does the data say about its pEC50? Entry: O=C1Nc2ccccc2C(c2ccccc2)=NC1Nc1ccc(-c2ccccc2)nn1 (centres unmarked)
< 6.10

What does the data say about its pEC50? Entry: `O=C1Nc2ccccc2C(c2ccccc2)=N[C@@H]1Nc1nnc(-c2ncc(C(F)(F)F)cc2N2C3CCC2COC3)o1`
> 6.40

What does the data say about its pEC50? Entry: O=C1Nc2ccccc2C(c2ccccc2)=NC1Nc1nnc(-c2ccccc2N2CCOCC2)o1 (centres unmarked)
6.10 to 6.40

What does the data say about its pEC50? Entry: `CC(C)n1cc(-c2nnc(N[C@H]3N=C(c4ccccc4)c4ccccc4NC3=O)o2)c(N2CCOCC2)n1`
> 6.40

What does the data say about its pEC50? Entry: `O=C1Nc2ccccc2C(c2ccccc2)=N[C@@H]1Nc1nnc(-c2ccc(F)cc2)o1`
< 6.10

What does the data say about its pEC50? Entry: CN(C)c1ccc(-c2nnc(NC3N=C(c4ccccc4)c4ccccc4NC3=O)o2)nc1 (centres unmarked)
< 6.10
